- Test system: 786-0
- measurement_protocol: NCI tumour cell line growth inhibition, 48 h
Active and inactive are the calls of the source. Cut-off read from the data, not from the text of the source: active = GI50 up to about 1.1 µM and inactive = higher.
Result category, one only: Y = active, N = inactive

The following molecules have reported results that may help.
                                   molecule  target_or_test_system  class_label
0  O=C(Cc1nc2ccccc2s1)C(=O)Nc1ccccc1C(F)(F)F                  786-0            N
1  CN(C)CCCN1C(=S)N(CCCN(C)C)c2c3cc(O)ccc3nc3c([N+](=O)[O-])ccc1c23                  786-0            Y
2  COC1C=CC(C(=O)[N+]2=Cc3[nH]c4ccccc4c3CC2)O1 (stereo unspecified)                  786-0            N
3     Cc1ccc(/C=C/C(=O)c2ccc(Cl)c(Cl)c2)cc1                  786-0            N
4  O=[N+]([O-])c1nccn1CCCNc1c2ccccc2[n+]([O-])c2ccccc12                  786-0            N
5  O=NC1C(Cl)C2CC1C1C(Br)C(Br)CC21 (stereo unspecified)                  786-0            N

Asked: Please indicate how the test categorized CC(C)(C)N(Cc1ccoc1)C(=O)/C=C\[S+]([O-])c1ccccc1 (stereo unspecified) .
Given back: N

Asked: Please indicate how the test categorized `COC(C)(C)[C@@H]1CCCN1C1=C(C)C(=O)OC1` .
Given back: N

Asked: Please indicate how the test categorized `C/C(CC(=O)Nc1ccc(C)cc1)=N\NC(N)=S` .
Given back: N

Asked: Please indicate how the test categorized c1ccc(SCCP(CCP(c2ccccc2)c2ccccc2)c2ccccc2)cc1 (stereo unspecified) .
Given back: N

Asked: Please indicate how the test categorized `CC(C)(C)C(=O)Oc1ccc(/C=C/C(=O)c2ccc(OC(=O)C(C)(C)C)cc2)cc1` .
Given back: N

---

- System: EKVX
- measurement_protocol: NCI tumour cell line growth inhibition, 48 h
Activity calls are given as the source filed them. Rule as the data show it: active = GI50 up to about 1.1 µM and inactive = higher.
Listing of entries alongside the reported GI50.

Solved entries (count: 3):
                                   compound             measured
0         CSc1ccccc1P(c1ccccc1SC)c1ccccc1SC  > 100 µM (inactive)
1  Clc1c(Cl)c(Cl)c2c(nnn2C2CCCO2)c1Cl (centres undefined)   22.3 µM (inactive)
2  COc1ccc2c(c1OC)C(C=C(c1ccccc1)c1ccccc1)CN(C)C2 (centres undefined)   35.3 µM (inactive)

Note: attention shifts to another entry.
Asked: Output GI50 of `Cc1ccc(C(=O)Nc2ccc(CP(=O)(O)O)cc2CP(=O)(O)O)cc1NC(=O)Nc1cc(C(=O)Nc2ccc(CP(=O)(O)O)cc2CP(=O)(O)O)ccc1C`
Given back: > 100 µM (inactive)

---

- Test system: KM12
- measurement_protocol: NCI tumour cell line growth inhibition, 48 h
Activity calls are given as the source filed them. Cut-off read from the data, not from the text of the source: active = GI50 up to about 1.1 µM and inactive = higher.
measured_parameter: GI50

Solved entries (count: 6):
compound	GI50
CC(=O)OCC1OC(n2c3c(cc(C#N)c2=S)CCC3)C(OC(C)=O)C(OC(C)=O)C1OC(C)=O (stereo not drawn)	> 100 µM (inactive)
CC(=O)OCC(=O)[C@@]12OC(C)(C)O[C@@H]1C[C@H]1[C@@H]3CC(C=O)=C4C=C(OCCCl)CC[C@]4(C)[C@@]3(F)[C@@H](O)C[C@@]12C [FORMOCORTAL]	16.7 µM (inactive)
O=[N+]([O-])c1ccc(S(=O)(=O)N=Ic2ccccc2)cc1	> 100 µM (inactive)
Cc1cc2c(cc1C)[n+]([O-])c(C(=O)C/C(=N/OCCCc1ccccc1)C(=O)Nc1cc(Cl)ccc1Cl)c(C)[n+]2[O-]	> 100 µM (inactive)
Nc1nnc2oc3ccc4ccccc4c3cc1-2	29.7 µM (inactive)
CN(/N=C/c1cccs1)c1ccc([N+](=O)[O-])cc1[N+](=O)[O-]	> 100 µM (inactive)

Asked: Output GI50 of `COC(=O)/C=C\S/C(=C(/c1ccccc1)n1ccc(C(=O)OC)n1)c1ccccc1`
Given back: > 100 µM (inactive)

Asked: Output GI50 of `O=[N+]([O-])c1ccc(O)c(/C=N/NC(=S)N2CCCCC2)c1`
Given back: 3.59 µM (inactive)

---

- Tested on: BT-549
- measurement_protocol: NCI tumour cell line growth inhibition, 48 h
Active and inactive are the calls of the source. Rule as the data show it: active = GI50 up to about 1.1 µM and inactive = higher.
Result category, one only: active, inactive

The following molecules have reported results that may help.
In [3]: df
Out[3]:
                                   molecule  class_label
0  CCCCCc1cc2cc3c(c(O)c2c(=O)[nH]1)C1(CCC3)C(=O)c2c(O)c3c(c(O)c2C1=O)C(=O)C(OC)=CC3=O (stereo not given)       active
1  O=C(O)C(Cc1c[nH]c2ccccc12)C(=O)NO (stereo not given)     inactive

Asked: Please indicate how the test categorized `CC(=O)N1CC(=O)N2C(=O)/C(=C/c3ccc(Cl)cc3)N=C12` .
Given back: inactive

Asked: Please indicate how the test categorized COC1C(O)=C2C(=O)OC(C)(O)/C=C/C=C\C=C/C=C/C(c3ccccc3)NC(=O)/C=C/C=C/C=C/C=C/C2(C)C1O (stereo not given) .
Given back: active

Asked: Please indicate how the test categorized C=CCC1=CC2(OC)C(=O)C(OC)(OC)C1C1C(OC)(OC)C(=O)C(OC)=CC12CC=C (stereo not given) .
Given back: inactive

---

Listing of entries alongside the reported GI50.
- System: NCI-H23
- measurement_protocol: NCI tumour cell line growth inhibition, 48 h
Activity calls are given as the source filed them. No stated cut-off is given here; in the data, active = GI50 up to about 1.1 µM and inactive = higher.

Asked: Output GI50 of `COc1c(-c2ccccc2)nc2ccc(Oc3ccccc3)nn12`
Given back: > 49 µM (inactive)

Asked: Output GI50 of CCOC(=O)C1=C(C)N(NC(=O)Nc2ccccc2)C2(N)N(NC(=O)Nc3ccccc3)C(C)=C(C(=O)OCC)C12C(=O)OCC (stereo not drawn)
Given back: 64 µM (inactive)

---

- Test system: NCI-H522
- measurement_protocol: NCI tumour cell line growth inhibition, 48 h
Activity calls are given as the source filed them. Cut-off read from the data, not from the text of the source: active = GI50 up to about 1.1 µM and inactive = higher.
Result category, one only: true (1) (active), false (0) (inactive)

The following molecules have reported results that may help.
molecule	class_label
CN(C)CCNC(=O)c1cccc(CO)c1[N+](=O)[O-]	false (0)
CC(=O)O[C@H]1C(=O)[C@@]2(C)[C@H]([C@H](OC(=O)c3ccccc3)[C@]3(O)C[C@H](OC(=O)[C@H](O)[C@@H](NC(=O)c4ccc(N(C)C)cc4)c4ccccc4)C(C)=C1C3(C)C)[C@]1(OC(C)=O)CO[C@@H]1C[C@@H]2O	true (1)
COc1c(-c2ccccc2)nc2ccc(Oc3ccccc3)nn12	false (0)

# ---- query molecule ----
Asked: Please indicate how the test categorized O=C(O)C1=C(O)C(C(=O)O)C23CCCCCCCCCCC12C(C(=O)O)C(O)=C3C(=O)O (centres undefined) .
Given back: false (0)

---

- System: 786-0
- measurement_protocol: NCI tumour cell line growth inhibition, 48 h
The source made the active and inactive calls. No stated cut-off is given here; in the data, active = GI50 up to about 1.1 µM and inactive = higher.
Result category, one only: active, inactive

Asked: Please indicate how the test categorized `CN(C)CCC(=O)c1ccccc1` .
Given back: inactive

Asked: Please indicate how the test categorized `CS/C(Nc1ccccc1)=C1\C(=O)N(c2ccccc2)N=C1C` .
Given back: inactive

Asked: Please indicate how the test categorized `Cc1ccc2c3c(cnc2n1)C(=O)OCCN3C` .
Given back: inactive

Asked: Please indicate how the test categorized `COc1ccc(NCc2cc(OC)cc(OC)c2)cc1` .
Given back: inactive

Asked: Please indicate how the test categorized `O=c1c2cc(-c3ccccc3)cnc2sn1-c1ccc(Br)cc1` .
Given back: inactive

Asked: Please indicate how the test categorized COC1OC(CBr)C(OC(=O)c2ccccc2)C(OS(=O)(=O)c2ccc(C)cc2)C1Br (stereo unspecified) .
Given back: inactive

Asked: Please indicate how the test categorized CC(=O)OCC(OC(C)=O)C(OC(C)=O)C(OC(C)=O)C(/C=N\Nc1nc2ccccc2c(=O)[nH]1)OC(C)=O (stereo unspecified) .
Given back: inactive

Asked: Please indicate how the test categorized N=C1N(c2ccccc2)C(=O)C23CCCC2C13N1CCOCC1 (stereo unspecified) .
Given back: inactive

Asked: Please indicate how the test categorized `CC(C)(C)c1ccc(-c2nnc(SCc3ccc(Cl)cc3)n2-c2cccc(C(F)(F)F)c2)cc1` .
Given back: inactive

Asked: Please indicate how the test categorized `CC(C)=CCC/C(C)=C/CC/C(C)=C/CC/C(C=O)=C/CC/C(C)=C\CC/C(C)=C/CC/C(C)=C/CC/C(C)=C/CC1=CC(=O)C=CC1=O` .
Given back: inactive

Asked: Please indicate how the test categorized `Cc1cccc2cc3cccc(C(=O)NCCN(C)C)c3nc12` .
Given back: active

Asked: Please indicate how the test categorized `COc1ccccc1/C=C/c1ccnc2ccccc12` .
Given back: inactive

Asked: Please indicate how the test categorized `CCCCCCCCOC(=O)c1cc([N+](=O)[O-])c(Sc2[nH]cnc3ncnc2-3)c([N+](=O)[O-])c1` .
Given back: inactive

Asked: Please indicate how the test categorized `CCN(CC)CCNc1nc2ccc([N+](=O)[O-])cc2[n+]([O-])n1` .
Given back: inactive

Asked: Please indicate how the test categorized `O=c1c2cc([N+](=O)[O-])cnc2sn1-c1ccc([N+](=O)[O-])cc1` .
Given back: inactive

Asked: Please indicate how the test categorized `O=C1C=Cc2c(-c3ccccc3)oc3cccc1c23` .
Given back: inactive

Asked: Please indicate how the test categorized COc1ccc2c(c1OC)C(C=C(c1ccccc1)c1ccccc1)CN(C)C2 (stereo unspecified) .
Given back: inactive

Asked: Please indicate how the test categorized `Nc1nc(Nc2ccccc2)sc1C(=O)c1ccco1` .
Given back: inactive

Asked: Please indicate how the test categorized `CC(=O)c1ccccc1NCC(=O)Nn1cnc2ccc(S(=O)(=O)Nc3ccccc3C(C)=O)cc2c1=O` .
Given back: inactive

Asked: Please indicate how the test categorized `COC(=O)[C@H](NC(=O)OC(C)(C)C)[C@H]1COC(C)(C)O1` .
Given back: inactive

Asked: Please indicate how the test categorized `CO/N=C(/C)c1cccc(Nc2nc3ccccc3c3[nH]c4ccccc4c23)c1` .
Given back: inactive
